Test system: SF-268 CNS
Experiment: NCI tumour cell line growth inhibition, 48 h
measurement.kind: TGI (µM)

compound="CC(C)CCCC(C)C1CCC2C3CC([N+](=O)[O-])=C4CC(O)CCC4(C)C3CCC12C (stereo not given)" unit_string=µM op== obs_value=62.9
compound=Fc1ccc2c(c1)SC1=Nc3sc4cc(F)ccc4[n+]3CN12 unit_string=µM op=> obs_value=100
compound=CNS(=O)(=O)Nc1nccc(Cc2c(C)c3ccc(Oc4ncccn4)cc3oc2=O)c1F unit_string=µM op=> obs_value=100
compound=O=C1NC(=NCc2cccs2)O/C1=C\c1ccc2ncccc2c1 unit_string=µM op== obs_value=18.1
compound=O=C1C(Cl)=CC2(C=C1Cl)CCN=c1c(O)c3c(c(O)c12)=NC=N3 unit_string=µM op=> obs_value=100
compound=O=[N+]([O-])c1ccc(N/N=C\c2cc(Br)ccc2O)nc1 unit_string=µM op== obs_value=4.18
compound=CC(=O)n1c2ccc(Br)cc2c2nc3ccccc3nc21 unit_string=µM op=> obs_value=100
compound="Cc1ccc2c(c1C)CC1(Cc3ccc(C)c(C)c3C1=O)C2=O (stereo not given)" unit_string=µM op=> obs_value=100
compound=CCCCCNC(=O)CCCCCCCCCCCNC(=O)CCCCCCCCCCN1C=CC(=CC=C2C=CC(=O)C=C2)C=C1 unit_string=µM op=> obs_value=100
compound=O=C1Nc2ccc(Cl)cc2/C1=N/c1nc(-c2ccc(Cl)cc2)cs1 unit_string=µM op== obs_value=4.41

* * *

System: NCI-H226 lung
Experiment: NCI tumour cell line growth inhibition, 48 h
measurement.kind: TGI

compound=CC(=O)n1c2ccc(Br)cc2c2nc3ccccc3nc21 obs_value="> 100 µM"
compound=COc1ccc(NC(=S)c2ccc([N+](=O)[O-])o2)cc1 obs_value="8.75 µM"
compound="Cc1nn(C(=O)Cc2ccccc2)c2c1C(c1ccc(/C=C/c3ccccc3)cc1)SC(N)=N2 (stereo unspecified)" obs_value="> 100 µM"
compound=S=c1[nH]nc(Cn2c3ccc(Br)cc3c3nc4ccccc4nc32)o1 obs_value="> 100 µM"
compound=CC(C)(CCCCC(C)(C)NC1=NCCO1)NC1=NCCO1 obs_value="> 10 µM"
compound=CCOC(=O)C#Cc1c(C(=O)OCC)nnn1[C@@H]1O[C@H](COC)[C@@H](OC)[C@H]1OC obs_value="3.18 µM"
compound=CN1S(=O)(=O)N(C)P12(N=P(CP(=NP13(N(C)S(=O)(=O)N1C)N(C)S(=O)(=O)N3C)(c1ccccc1)c1ccccc1)(c1ccccc1)c1ccccc1)N(C)S(=O)(=O)N2C obs_value="> 100 µM"
compound="CCOC(OCC)(OCC)C(Br)CC (stereo unspecified)" obs_value="> 100 µM"
compound=Oc1c(Br)cc(Cl)cc1C(c1cc(Cl)cc(Br)c1O)C(Cl)(Cl)Cl obs_value="8.61 µM"
compound=O=c1c2cc(Br)ccc2nc(CNc2ccccc2)n1-c1ccccc1 obs_value="43.9 µM"
compound=O=C(/C=C/c1ccccc1)CCN1CCCCC1 obs_value="> 100 µM"
compound="COC(=O)C1=C(OC)C(=P2(c3ccccc3)CC(c3ccccc3)=C2c2ccccc2)C(C(=O)OC)=C1C(=O)OC (stereo unspecified)" obs_value="> 100 µM"
compound=O=c1oc2ccccc2c(-c2ccc(O)cc2)c1Oc1ccccc1 obs_value="> 75.7 µM"
compound=COC(=O)[C@@H]1Cc2ccc(OC)c(c2)OCCC(=O)N1 obs_value="> 100 µM"
compound=CCOC(=O)c1nc2ccc(C(F)(F)F)cc2nc1Oc1ccc(OC)cc1 obs_value="> 100 µM"
compound=Cc1cnc2[nH]c(-c3cccc4ccccc34)cc(=O)c2c1 obs_value="59.9 µM"
compound=O=C(O)c1ccccc1/C=C1\Cc2cc3c(cc2C1=O)CCC3 obs_value="80.8 µM"
compound=N#Cc1c(CC(=O)O)cc(=O)n2c1[nH]c1ccccc12 obs_value="> 100 µM"
compound=O=c1c2sc3ccccc3sc=2c(=O)c2c(Cl)c(Cl)c(Cl)c(Cl)c12 obs_value="> 100 µM"
compound="O/N=C1/C(=C/c2ccc(OCc3ccccc3)cc2)CCCC1C(NO)c1ccc(OCc2ccccc2)cc1 (stereo unspecified)" obs_value="> 100 µM"
compound="CCN(CC)c1ccc(Cl)c2c1C(O)(C(C)C)C2(C)C (stereo unspecified)" obs_value="33.6 µM"

The reported measurements were obtained from PubChem BioAssay (NCI).
